Value source: patent US8642657B2

>  <Molecule>
CC(C(=O)NCCC(c1ccccc1)c1ccccc1)c1ccc(NS(C)(=O)=O)c(F)c1 (stereo not drawn)

>  <melting point>
66 to 68 °C

$$$$
>  <Molecule>
C[C@H](NC(=S)NC[C@@H](COC(=O)C(C)(C)C)Cc1ccccc1)c1ccc(NS(C)(=O)=O)cc1

>  <melting point>
62 to 64 °C

$$$$
>  <Molecule>
C[C@H](C(=O)NC[C@H](COC(=O)C(C)(C)C)Cc1ccc(C(C)(C)C)cc1)c1ccc(NS(C)(=O)=O)c(F)c1

>  <melting point>
44 to 46 °C

$$$$
>  <Molecule>
Cc1ccc(CC(CNC(=S)NC(C)c2ccc(NS(C)(=O)=O)cc2)COC(=O)C(C)(C)C)cc1C (stereo not drawn)

>  <melting point>
77 °C

$$$$
>  <Molecule>
C[C@@H](NC(=S)N[C@@H](COC(=O)C(C)(C)C)Cc1ccccc1)c1ccc(NS(C)(=O)=O)cc1

>  <melting point>
59 to 61 °C

$$$$
>  <Molecule>
COc1cc(C(C)C(=O)NCC(COC(=O)C(C)(C)C)Cc2ccc(C(C)(C)C)cc2)ccc1NS(C)(=O)=O (stereo not drawn)

>  <melting point>
54 to 57 °C

$$$$
>  <Molecule>
Cc1ccc(CC(CNC(=O)C(C)(C)c2ccc(NS(C)(=O)=O)c(F)c2)COC(=O)C(C)(C)C)cc1C (stereo not drawn)

>  <melting point>
53 to 55 °C

$$$$
>  <Molecule>
CC(C(=O)NCc1ccc(C(C)(C)C)cc1)c1ccc(NS(C)(=O)=O)cc1Cl (stereo not drawn)

>  <melting point>
134 to 136 °C

$$$$
>  <Molecule>
CC(C(=O)NCc1ccc(C(C)(C)C)cc1)c1ccc(NS(C)(=O)=O)c(N2CCNCC2)c1 (stereo not drawn)

>  <melting point>
92 °C

$$$$

----------
>  <Molecule>
CC(NC(=O)C=Cc1ccc(Cl)cc1)c1ccc(NS(C)(=O)=O)c(F)c1 (stereo not drawn) [24-7]

>  <melting point>
219 to 221 °C

$$$$
>  <Molecule>
Cc1ccc(CC(CNC(=O)C(C)(C)c2ccc(NS(C)(=O)=O)cc2)COC(=O)C(C)(C)C)cc1C (stereo not drawn) [9-1]

>  <melting point>
126 to 130 °C

$$$$
>  <Molecule>
CC(C(=O)NCCCc1ccc(Cl)cc1)c1ccc(NS(C)(=O)=O)c(F)c1 (stereo not drawn) [4-19]

>  <melting point>
141 to 143 °C

$$$$

----------
Target: rat VR1 (Rattus norvegicus)
Construct: expressed in transfected cells
Assay: [3H]resiniferatoxin (RTX) competition binding assay, VR1-transfected CHO cells
Conditions: competition with [3H]RTX, rat VR1 in CHO cells; read-out: Ki (nM) Binding Affinity
Readout Name: Ki

>  <Compound>
COc1cc(C(C)C(=O)NCc2ccc(C(C)(C)C)cc2)ccc1NS(C)(=O)=O (centres unmarked) [1-65]

>  <Value Reported>
536 nM

$$$$
>  <Compound>
CC(C(=O)NCc1ccc(C(C)(C)C)cc1)c1ccc(NS(C)(=O)=O)cc1F (centres unmarked) [1-66]

>  <Value Reported>
358 nM

$$$$
>  <Compound>
CC(C(=O)NCC=C1c2ccccc2CCc2ccccc21)c1ccc(NS(C)(=O)=O)c(F)c1 (centres unmarked) [4-28]

>  <Value Reported>
141 nM

$$$$
>  <Compound>
CC(C(=O)NCc1ccc(-c2ccccc2)cc1)c1ccc(NS(C)(=O)=O)c(F)c1 (centres unmarked) [4-11]

>  <Value Reported>
1750 nM

$$$$
>  <Compound>
CC(C(=O)NCc1ccc(C(C)(C)C)cc1)c1ccc(NS(C)(=O)=O)c(C(=O)OC(C)(C)C)c1 (centres unmarked) [1-57]

>  <Value Reported>
6730 nM

$$$$

----------
>  <Compound>
COc1cc(C2(NC(=S)NCc3ccc(C(C)(C)C)cc3)CC2)ccc1NS(C)(=O)=O

>  <melting point>
100 to 103 °C

$$$$
>  <Compound>
C[C@@H](C(=O)NC[C@H](COC(=O)C(C)(C)C)Cc1ccc(C(C)(C)C)cc1)c1ccc(NS(C)(=O)=O)c(F)c1

>  <melting point>
43 to 45 °C

$$$$
>  <Compound>
C[C@H](C(=O)NC[C@@H](COC(=O)C(C)(C)C)Cc1ccc(C(C)(C)C)cc1)c1ccc(NS(C)(=O)=O)c(F)c1

>  <melting point>
43 to 45 °C

$$$$
>  <Compound>
CC(C(=O)NCc1ccc(C(C)(C)C)cc1)c1ccc(NS(C)(=O)=O)c(I)c1 (stereo not drawn)

>  <melting point>
71 °C

$$$$
>  <Compound>
C[C@@H](NC(=S)NC[C@@H](COC(=O)C(C)(C)C)Cc1ccccc1)c1ccc(NS(C)(=O)=O)cc1

>  <melting point>
58 to 62 °C

$$$$
>  <Compound>
C[C@H](C(=O)NC[C@H](COC(=O)C(C)(C)C)Cc1ccccc1)c1ccc(NS(C)(=O)=O)c(F)c1

>  <melting point>
40 to 42 °C

$$$$
>  <Compound>
CC(C(=O)NCc1ccc(-c2ccccc2)cc1)c1ccc(NS(C)(=O)=O)c(F)c1 (stereo not drawn)

>  <melting point>
155 to 157 °C

$$$$
>  <Compound>
CC(C(=O)NCC=C1c2ccccc2CCc2ccccc21)c1ccc(NS(C)(=O)=O)c(F)c1 (stereo not drawn)

>  <melting point>
67 to 69 °C

$$$$
>  <Compound>
COc1cc(C(C)C(=O)NCc2ccc(C(C)(C)C)cc2)ccc1NS(C)(=O)=O (stereo not drawn)

>  <melting point>
74 to 76 °C

$$$$

----------
Target: rat VR1 (Rattus norvegicus, UniProt O35433)
Construct: expressed in transfected cells
Sequence (O35433 whole entry): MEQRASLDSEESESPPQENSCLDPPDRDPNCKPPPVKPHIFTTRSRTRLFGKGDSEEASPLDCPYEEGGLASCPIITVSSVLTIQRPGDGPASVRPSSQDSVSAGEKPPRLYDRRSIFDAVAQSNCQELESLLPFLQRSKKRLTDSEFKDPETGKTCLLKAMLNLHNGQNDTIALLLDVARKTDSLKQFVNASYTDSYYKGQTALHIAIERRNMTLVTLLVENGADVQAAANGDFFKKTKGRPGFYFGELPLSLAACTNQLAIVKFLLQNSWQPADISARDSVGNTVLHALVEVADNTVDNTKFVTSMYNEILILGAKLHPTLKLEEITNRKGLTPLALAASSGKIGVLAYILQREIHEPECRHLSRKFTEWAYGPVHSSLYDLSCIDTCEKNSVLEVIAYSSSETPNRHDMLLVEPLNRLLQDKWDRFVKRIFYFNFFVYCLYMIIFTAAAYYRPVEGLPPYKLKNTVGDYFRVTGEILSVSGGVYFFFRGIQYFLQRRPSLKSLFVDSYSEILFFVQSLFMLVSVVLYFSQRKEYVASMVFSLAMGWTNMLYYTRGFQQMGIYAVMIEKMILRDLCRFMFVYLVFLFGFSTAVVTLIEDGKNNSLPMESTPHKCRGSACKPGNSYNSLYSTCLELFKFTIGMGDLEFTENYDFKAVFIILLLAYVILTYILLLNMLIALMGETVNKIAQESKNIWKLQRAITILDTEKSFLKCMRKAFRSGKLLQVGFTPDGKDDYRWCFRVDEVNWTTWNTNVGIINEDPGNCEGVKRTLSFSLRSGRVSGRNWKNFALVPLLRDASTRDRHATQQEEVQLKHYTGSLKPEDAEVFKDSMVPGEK
Experiment: [3H]resiniferatoxin (RTX) competition binding assay, VR1-transfected CHO cells
Conditions: competition with [3H]RTX, rat VR1 in CHO cells; read-out: Ki (nM) Binding Affinity
Readout Name: Ki

>  <Compound>
CC(C)c1ccc(CNC(=O)C(C)c2ccc(NS(C)(=O)=O)c(F)c2)cc1 (stereo not drawn)

>  <Readout Name>
Ki

>  <Value Reported>
127 nM

$$$$
>  <Compound>
C[C@H](C(=O)NC[C@H](COC(=O)C(C)(C)C)Cc1ccc(C(C)(C)C)cc1)c1ccc(NS(C)(=O)=O)c(Cl)c1

>  <Readout Name>
Ki

>  <Value Reported>
1.83 nM

$$$$
>  <Compound>
Cc1ccc(CC(CNC(=O)C(C)(C)c2ccc(NS(C)(=O)=O)cc2)COC(=O)C(C)(C)C)cc1C (stereo not drawn)

>  <Readout Name>
Ki

>  <Value Reported>
372 nM

$$$$

----------
# melting point values compiled below
Readout Name: melting point

>  <Molecule>
COc1cc(C2(C(=O)NCc3ccc(C(C)(C)C)cc3)CC2)ccc1NS(C)(=O)=O

>  <Value Reported>
200 to 203 °C

$$$$
>  <Molecule>
C[C@H](C(=O)NC[C@H](COC(=O)C(C)(C)C)Cc1ccc(C(C)(C)C)cc1)c1ccc(NS(C)(=O)=O)c(Cl)c1

>  <Value Reported>
61 to 63 °C

$$$$
>  <Molecule>
CC(C(=O)NCc1ccc(C(C)(C)C)cc1)c1ccc(NS(C)(=O)=O)cc1 (stereo not shown)

>  <Value Reported>
77 to 79 °C

$$$$
>  <Molecule>
COc1ccc(CNC(=O)C(C)c2ccc(NS(C)(=O)=O)c(F)c2)cc1 (stereo not shown)

>  <Value Reported>
138 °C

$$$$
>  <Molecule>
C[C@@H](NC(=S)NC[C@H](COC(=O)C(C)(C)C)Cc1ccc(C(C)(C)C)cc1)c1ccc(NS(C)(=O)=O)cc1

>  <Value Reported>
85 to 87 °C

$$$$
>  <Molecule>
CC(C)(C)c1ccc(CNC(=O)C(C)(C)c2ccc(NS(C)(=O)=O)cc2)cc1

>  <Value Reported>
141 to 143 °C

$$$$
>  <Molecule>
Cc1ccc(C(=CCNC(=O)C(C)c2ccc(NS(C)(=O)=O)c(F)c2)c2ccc(C)cc2)cc1 (stereo not shown)

>  <Value Reported>
163 to 165 °C

$$$$
>  <Molecule>
CC(C(=O)NCc1ccc(Cl)c(Cl)c1)c1ccc(NS(C)(=O)=O)c(Br)c1 (stereo not shown)

>  <Value Reported>
161 to 162 °C

$$$$
>  <Molecule>
CC(C(=O)NCc1ccc(C(C)(C)C)cc1)c1cc(F)c(NS(C)(=O)=O)c(F)c1 (stereo not shown)

>  <Value Reported>
80 to 81 °C

$$$$
>  <Molecule>
CC(C(=O)NOCc1ccccc1)c1ccc(NS(C)(=O)=O)c(F)c1 (stereo not shown)

>  <Value Reported>
182 to 183 °C

$$$$
>  <Molecule>
Cc1ccc(C=CC(=O)NC(C)c2ccc(NS(C)(=O)=O)c(F)c2)cc1C (stereo not shown)

>  <Value Reported>
212 to 213 °C

$$$$
>  <Molecule>
CC(C(=O)NCC=C(c1ccccc1)c1ccccc1)c1ccc(NS(C)(=O)=O)c(F)c1 (stereo not shown)

>  <Value Reported>
155 to 157 °C

$$$$
>  <Molecule>
C[C@@H](C(=O)NC[C@@H](COC(=O)C(C)(C)C)Cc1ccc(C(C)(C)C)cc1)c1ccc(NS(C)(=O)=O)c(F)c1

>  <Value Reported>
44 to 46 °C

$$$$
>  <Molecule>
CC(C(=O)NCc1ccc(C(C)(C)C)cc1)c1ccc(NS(C)(=O)=O)cc1F (stereo not shown)

>  <Value Reported>
111 to 113 °C

$$$$
>  <Molecule>
CC(C(=O)NC(c1ccccc1)c1ccccc1)c1ccc(NS(C)(=O)=O)c(F)c1 (stereo not shown)

>  <Value Reported>
160 to 161 °C

$$$$
>  <Molecule>
CC(C(=O)NCc1ccc(C(C)(C)C)cc1)c1ccc(NS(C)(=O)=O)c(N2CCCCC2)c1 (stereo not shown)

>  <Value Reported>
125 °C

$$$$
>  <Molecule>
CC(C(=O)NCCc1ccc(C(C)(C)C)cc1)c1ccc(NS(C)(=O)=O)c(F)c1 (stereo not shown)

>  <Value Reported>
124 to 126 °C

$$$$
>  <Molecule>
C[C@H](NC(=S)NCc1ccc(C(C)(C)C)cc1)c1ccc(NS(C)(=O)=O)cc1

>  <Value Reported>
101 °C

$$$$
>  <Molecule>
CC(C(=O)NCC=C(c1ccc(F)cc1)c1ccc(F)cc1)c1ccc(NS(C)(=O)=O)c(F)c1 (stereo not shown)

>  <Value Reported>
57 to 60 °C

$$$$
>  <Molecule>
CC(NC(=S)NC(COC(=O)C(C)(C)C)Cc1ccccc1)c1ccc(NS(C)(=O)=O)cc1 (stereo not shown)

>  <Value Reported>
61 to 64 °C

$$$$
>  <Molecule>
CC(C(=O)NCc1ccc(C(C)(C)C)cc1)c1ccc(NS(C)(=O)=O)c(C(=O)O)c1 (stereo not shown)

>  <Value Reported>
180 to 183 °C

$$$$
>  <Molecule>
CC(NC(=O)CCc1ccc(C(C)(C)C)cc1)c1ccc(NS(C)(=O)=O)c(F)c1 (stereo not shown)

>  <Value Reported>
152 to 154 °C

$$$$
>  <Molecule>
Cc1ccc(CC(CNC(=O)C2(c3ccc(NS(C)(=O)=O)cc3)CC2)COC(=O)C(C)(C)C)cc1C (stereo not shown)

>  <Value Reported>
54 to 56 °C

$$$$
>  <Molecule>
CC(C(=O)NCc1ccc(Cl)c(Cl)c1)c1ccc(NS(C)(=O)=O)c(F)c1 (stereo not shown)

>  <Value Reported>
130 to 133 °C

$$$$
>  <Molecule>
CC(NC(=O)Cc1ccc(C(C)(C)C)cc1)c1ccc(NS(C)(=O)=O)c(F)c1 (stereo not shown)

>  <Value Reported>
134 to 136 °C

$$$$
>  <Molecule>
CC(C(=O)NCc1cccc2ccccc12)c1ccc(NS(C)(=O)=O)c(F)c1 (stereo not shown)

>  <Value Reported>
159 to 161 °C

$$$$
>  <Molecule>
COC(=O)c1cc(C(C)NC(=S)NCc2ccc(C(C)(C)C)cc2)ccc1NS(C)(=O)=O (stereo not shown)

>  <Value Reported>
132 to 135 °C

$$$$
>  <Molecule>
CC(C)(C)c1ccc(CNC(=O)C2(c3ccc(NS(C)(=O)=O)c(F)c3)CC2)cc1

>  <Value Reported>
200 to 203 °C

$$$$
